EXPERIMENTAL SYSTEM: CYP2C19 (Homo sapiens, UniProt P33261)
Sequence (P33261 whole entry, canonical isoform): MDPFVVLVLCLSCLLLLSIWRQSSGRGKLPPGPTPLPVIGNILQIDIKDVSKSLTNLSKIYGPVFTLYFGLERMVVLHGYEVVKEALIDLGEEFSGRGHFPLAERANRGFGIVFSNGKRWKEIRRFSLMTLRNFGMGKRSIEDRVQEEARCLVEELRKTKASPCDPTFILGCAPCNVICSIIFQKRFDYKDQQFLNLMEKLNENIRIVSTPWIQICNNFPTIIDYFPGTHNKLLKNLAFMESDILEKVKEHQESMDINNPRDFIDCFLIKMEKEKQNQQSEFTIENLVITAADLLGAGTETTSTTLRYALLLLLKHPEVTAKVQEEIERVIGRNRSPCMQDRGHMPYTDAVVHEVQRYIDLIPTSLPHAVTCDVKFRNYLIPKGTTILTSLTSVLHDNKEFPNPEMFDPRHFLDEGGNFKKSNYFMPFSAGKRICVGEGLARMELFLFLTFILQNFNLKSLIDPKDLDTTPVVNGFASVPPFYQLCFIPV
TEST: Cytochrome P450 isoform inhibition in human hepatic microsomes, S-mephenytoin (Example 18)
TEST SETTINGS: human hepatic microsomes 1 mg/mL, 50 μM S-mephenytoin, 30 minutes; read-out: IC50, 4-hydroxymephenytoin production (CYP2C19)
PROPERTY LABEL: IC50

# IC50 of O=C(O)C(Oc1cccc(C(F)(F)F)c1)c1ccc(Cl)cc1 (single isomer, unassigned; (-)) [(−) halofenic acid] = > 33.3 µM

---

EXPERIMENTAL SYSTEM: CYP1A2 (Homo sapiens, UniProt P05177)
Sequence (P05177 whole entry): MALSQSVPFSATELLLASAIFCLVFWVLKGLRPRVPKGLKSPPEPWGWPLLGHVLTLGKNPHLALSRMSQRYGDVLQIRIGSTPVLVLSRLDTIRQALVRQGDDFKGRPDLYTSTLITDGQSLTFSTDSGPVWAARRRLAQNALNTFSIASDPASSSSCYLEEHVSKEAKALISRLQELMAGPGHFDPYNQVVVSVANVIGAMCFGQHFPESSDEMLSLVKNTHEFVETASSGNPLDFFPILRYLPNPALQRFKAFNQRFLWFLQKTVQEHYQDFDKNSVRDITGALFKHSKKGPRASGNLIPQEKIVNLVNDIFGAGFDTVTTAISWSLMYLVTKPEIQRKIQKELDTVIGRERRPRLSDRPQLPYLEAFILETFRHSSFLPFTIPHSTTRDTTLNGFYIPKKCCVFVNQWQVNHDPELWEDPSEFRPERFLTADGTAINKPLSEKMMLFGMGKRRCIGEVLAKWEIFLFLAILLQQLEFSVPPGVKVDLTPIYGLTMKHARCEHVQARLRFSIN
TEST: in vitro
TEST SETTINGS: both, microsomes
PROPERTY LABEL: inhibition at 30 min, 0.33 μM (%)
Value expressed in %; do not type the unit.

# inhibition at 30 min, 0.33 μM of O=C(O)C(Oc1cccc(C(F)(F)F)c1)c1ccc(Cl)cc1 (single isomer, unassigned; (-)) [(−) halofenic acid] = 1

---

EXPERIMENTAL SYSTEM: UniProt:P33261
TEST: Cytochrome P450 isoform inhibition in human hepatic microsomes, S-mephenytoin (Example 18)
Format: in vitro ADME
TEST SETTINGS: both sexes, human, pooled human hepatic microsomes, probe S-mephenytoin 50 μM; test article 3.3 μM
PROPERTY LABEL: inhibition at 30 min, 3.3 μM (%)
Value expressed in %; do not type the unit.

# inhibition at 30 min, 3.3 μM of O=C(O)C(Oc1cccc(C(F)(F)F)c1)c1ccc(Cl)cc1 (single isomer, unassigned; (-)) [(−) halofenic acid] = 15

---

Tested on: C57BL/6J ob/ob mice
TEST: Glucose lowering activity of halofenate analogs in ob/ob mice (Example 12)
Type: in vivo
TEST SETTINGS: 125 mg/kg oral once a day
54 hours Glucose by entry:
Value expressed in mg/dL; do not type the unit.

Recorded 54 hours Glucose, per entry:
MOLECULE | OBS VALUE
O=C(NCCOC(=O)C(Oc1cccc(C(F)(F)F)c1)c1ccc(Cl)cc1)c1ccccc1 (racemic) [(±)Analog 36] | 272.2
CC(=O)NCCOC(=O)C(Oc1cccc(C(F)(F)F)c1)c1ccc(F)cc1 (racemic) [(±)Analog 14] | 293.0
CCCCOC(=O)C(Oc1cccc(C(F)(F)F)c1)c1ccc(Cl)cc1 (racemic) [(±)Analog 33] | 286.6

# 54 hours Glucose of CN(C)C(=O)COC(=O)C(Oc1cccc(C(F)(F)F)c1)c1ccc(Cl)cc1 (racemic) [(±)Analog 38] = 243.1

# 54 hours Glucose of CC(=O)NCCOC(=O)C(Oc1cccc(C(F)(F)F)c1)c1ccc(Br)cc1 (racemic) [(±)Analog 29] = 293.3

# 54 hours Glucose of NC(=O)COC(=O)C(Oc1cccc(C(F)(F)F)c1)c1ccc(Cl)cc1 (racemic) [(±)Analog 37] = 285.1

---

EXPERIMENTAL SYSTEM: CYP2A6 (Homo sapiens)
Sequence (P11509 1-494): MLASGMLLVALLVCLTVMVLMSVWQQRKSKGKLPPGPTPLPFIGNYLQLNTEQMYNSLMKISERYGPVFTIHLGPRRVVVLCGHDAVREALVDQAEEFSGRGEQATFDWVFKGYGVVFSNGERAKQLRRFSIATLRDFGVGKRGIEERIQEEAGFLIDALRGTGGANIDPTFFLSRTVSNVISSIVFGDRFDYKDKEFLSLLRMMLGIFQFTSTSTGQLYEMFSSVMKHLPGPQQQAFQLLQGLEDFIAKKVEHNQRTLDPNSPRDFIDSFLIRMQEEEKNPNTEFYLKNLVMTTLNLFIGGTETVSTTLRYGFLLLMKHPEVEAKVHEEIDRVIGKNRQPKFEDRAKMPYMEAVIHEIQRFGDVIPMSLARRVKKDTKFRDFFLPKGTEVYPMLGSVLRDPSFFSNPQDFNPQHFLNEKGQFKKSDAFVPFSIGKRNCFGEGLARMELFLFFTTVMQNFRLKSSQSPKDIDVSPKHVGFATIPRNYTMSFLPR
TEST: in vitro
TEST SETTINGS: both, microsomes
PROPERTY LABEL: inhibition at 20 min, 0.33 μM (%)
Value expressed in %; do not type the unit.

# inhibition at 20 min, 0.33 μM of O=C(O)C(Oc1cccc(C(F)(F)F)c1)c1ccc(Cl)cc1 (single isomer, unassigned; (-)) [(−) halofenic acid] = -4

Numbers sourced from patent US20040039053A1.
